Target: T1, mouse LAG-3 protein with hFc tag (mLAG-3-hFc protein) (mouse; human, UniProt Q61790 24-442)
T1 construct: Made in HEK293 cells; also called mouse LAG-3 extracellular domain protein; not shown: human IgG Fc fragment (hFc) of the pCpC vector
T1 sequence: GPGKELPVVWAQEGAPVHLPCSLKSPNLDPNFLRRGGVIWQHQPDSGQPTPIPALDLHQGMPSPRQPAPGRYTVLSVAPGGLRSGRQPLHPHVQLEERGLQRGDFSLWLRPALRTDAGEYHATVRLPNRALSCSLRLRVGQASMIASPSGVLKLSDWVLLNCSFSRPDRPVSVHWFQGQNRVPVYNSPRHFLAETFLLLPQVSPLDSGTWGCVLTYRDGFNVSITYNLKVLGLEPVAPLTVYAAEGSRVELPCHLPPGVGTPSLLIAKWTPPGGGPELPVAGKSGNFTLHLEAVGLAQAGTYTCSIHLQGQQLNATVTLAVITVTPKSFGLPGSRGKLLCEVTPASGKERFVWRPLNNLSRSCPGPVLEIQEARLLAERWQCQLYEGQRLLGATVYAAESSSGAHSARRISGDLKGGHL
Test: ELISA, mLAG-3-hFc coated; 0.0007 nM
Items are presented alongside their recorded OD450.
Expressed in OD450, but write only the number.

# annotated cases, reported OD450 shown
556F6B8 (LAG-3 mouse-human chimeric antibody) (antibody, V domains shown, also called 556F8B8) VH: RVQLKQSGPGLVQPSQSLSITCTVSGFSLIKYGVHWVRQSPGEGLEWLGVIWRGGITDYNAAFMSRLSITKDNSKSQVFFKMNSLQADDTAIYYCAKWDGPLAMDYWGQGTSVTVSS VL: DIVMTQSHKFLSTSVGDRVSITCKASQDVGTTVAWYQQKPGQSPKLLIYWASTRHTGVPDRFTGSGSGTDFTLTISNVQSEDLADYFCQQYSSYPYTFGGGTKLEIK
0.08
105F1E10 (LAG-3 mouse-human chimeric antibody) (antibody, V domains shown) VH: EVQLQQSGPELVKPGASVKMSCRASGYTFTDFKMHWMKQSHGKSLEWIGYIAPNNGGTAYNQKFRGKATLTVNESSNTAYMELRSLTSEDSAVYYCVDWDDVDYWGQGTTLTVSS VL: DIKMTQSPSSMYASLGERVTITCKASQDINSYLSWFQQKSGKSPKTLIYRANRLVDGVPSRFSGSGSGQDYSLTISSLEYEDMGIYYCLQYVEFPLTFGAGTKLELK
0.08
409B11E12 (LAG-3 mouse-human chimeric antibody) (antibody, V domains shown) VH: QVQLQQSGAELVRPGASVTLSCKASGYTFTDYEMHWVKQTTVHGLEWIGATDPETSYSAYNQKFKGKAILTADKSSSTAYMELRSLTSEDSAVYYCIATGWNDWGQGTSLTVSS VL: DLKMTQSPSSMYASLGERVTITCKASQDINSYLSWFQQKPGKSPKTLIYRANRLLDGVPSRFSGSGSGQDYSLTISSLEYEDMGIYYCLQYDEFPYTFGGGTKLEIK
0.08
405B8H3 (LAG-3 mouse-human chimeric antibody) (antibody, V domains shown, also called mouse-human chimeric antibody 405B8H3) VH: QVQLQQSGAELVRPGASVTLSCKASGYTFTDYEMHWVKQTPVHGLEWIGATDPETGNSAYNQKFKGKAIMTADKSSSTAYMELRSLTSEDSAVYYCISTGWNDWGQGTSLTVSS VL: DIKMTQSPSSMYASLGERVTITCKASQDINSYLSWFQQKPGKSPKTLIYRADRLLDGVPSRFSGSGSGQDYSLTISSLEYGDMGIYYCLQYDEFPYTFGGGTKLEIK
0.08

# evaluate next
**Query** Please supply the value of reported OD450 for the item 409D4E10 (LAG-3 mouse-human chimeric antibody) (antibody, V domains shown) VH: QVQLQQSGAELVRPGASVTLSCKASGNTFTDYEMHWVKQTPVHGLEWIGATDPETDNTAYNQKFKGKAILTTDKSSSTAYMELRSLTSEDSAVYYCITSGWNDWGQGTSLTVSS VL: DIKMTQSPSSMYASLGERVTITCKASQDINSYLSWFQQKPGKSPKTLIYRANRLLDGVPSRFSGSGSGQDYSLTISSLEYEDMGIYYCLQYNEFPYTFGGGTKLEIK
**Result** 0.13
